These entries and their values trace back to patent US9546164B2.

TEST SYSTEM: hNav1.7 (Homo sapiens (Human), UniProt Q15858)
Sequence (Q15858 other isoform, or with tags, fused parts or gaps): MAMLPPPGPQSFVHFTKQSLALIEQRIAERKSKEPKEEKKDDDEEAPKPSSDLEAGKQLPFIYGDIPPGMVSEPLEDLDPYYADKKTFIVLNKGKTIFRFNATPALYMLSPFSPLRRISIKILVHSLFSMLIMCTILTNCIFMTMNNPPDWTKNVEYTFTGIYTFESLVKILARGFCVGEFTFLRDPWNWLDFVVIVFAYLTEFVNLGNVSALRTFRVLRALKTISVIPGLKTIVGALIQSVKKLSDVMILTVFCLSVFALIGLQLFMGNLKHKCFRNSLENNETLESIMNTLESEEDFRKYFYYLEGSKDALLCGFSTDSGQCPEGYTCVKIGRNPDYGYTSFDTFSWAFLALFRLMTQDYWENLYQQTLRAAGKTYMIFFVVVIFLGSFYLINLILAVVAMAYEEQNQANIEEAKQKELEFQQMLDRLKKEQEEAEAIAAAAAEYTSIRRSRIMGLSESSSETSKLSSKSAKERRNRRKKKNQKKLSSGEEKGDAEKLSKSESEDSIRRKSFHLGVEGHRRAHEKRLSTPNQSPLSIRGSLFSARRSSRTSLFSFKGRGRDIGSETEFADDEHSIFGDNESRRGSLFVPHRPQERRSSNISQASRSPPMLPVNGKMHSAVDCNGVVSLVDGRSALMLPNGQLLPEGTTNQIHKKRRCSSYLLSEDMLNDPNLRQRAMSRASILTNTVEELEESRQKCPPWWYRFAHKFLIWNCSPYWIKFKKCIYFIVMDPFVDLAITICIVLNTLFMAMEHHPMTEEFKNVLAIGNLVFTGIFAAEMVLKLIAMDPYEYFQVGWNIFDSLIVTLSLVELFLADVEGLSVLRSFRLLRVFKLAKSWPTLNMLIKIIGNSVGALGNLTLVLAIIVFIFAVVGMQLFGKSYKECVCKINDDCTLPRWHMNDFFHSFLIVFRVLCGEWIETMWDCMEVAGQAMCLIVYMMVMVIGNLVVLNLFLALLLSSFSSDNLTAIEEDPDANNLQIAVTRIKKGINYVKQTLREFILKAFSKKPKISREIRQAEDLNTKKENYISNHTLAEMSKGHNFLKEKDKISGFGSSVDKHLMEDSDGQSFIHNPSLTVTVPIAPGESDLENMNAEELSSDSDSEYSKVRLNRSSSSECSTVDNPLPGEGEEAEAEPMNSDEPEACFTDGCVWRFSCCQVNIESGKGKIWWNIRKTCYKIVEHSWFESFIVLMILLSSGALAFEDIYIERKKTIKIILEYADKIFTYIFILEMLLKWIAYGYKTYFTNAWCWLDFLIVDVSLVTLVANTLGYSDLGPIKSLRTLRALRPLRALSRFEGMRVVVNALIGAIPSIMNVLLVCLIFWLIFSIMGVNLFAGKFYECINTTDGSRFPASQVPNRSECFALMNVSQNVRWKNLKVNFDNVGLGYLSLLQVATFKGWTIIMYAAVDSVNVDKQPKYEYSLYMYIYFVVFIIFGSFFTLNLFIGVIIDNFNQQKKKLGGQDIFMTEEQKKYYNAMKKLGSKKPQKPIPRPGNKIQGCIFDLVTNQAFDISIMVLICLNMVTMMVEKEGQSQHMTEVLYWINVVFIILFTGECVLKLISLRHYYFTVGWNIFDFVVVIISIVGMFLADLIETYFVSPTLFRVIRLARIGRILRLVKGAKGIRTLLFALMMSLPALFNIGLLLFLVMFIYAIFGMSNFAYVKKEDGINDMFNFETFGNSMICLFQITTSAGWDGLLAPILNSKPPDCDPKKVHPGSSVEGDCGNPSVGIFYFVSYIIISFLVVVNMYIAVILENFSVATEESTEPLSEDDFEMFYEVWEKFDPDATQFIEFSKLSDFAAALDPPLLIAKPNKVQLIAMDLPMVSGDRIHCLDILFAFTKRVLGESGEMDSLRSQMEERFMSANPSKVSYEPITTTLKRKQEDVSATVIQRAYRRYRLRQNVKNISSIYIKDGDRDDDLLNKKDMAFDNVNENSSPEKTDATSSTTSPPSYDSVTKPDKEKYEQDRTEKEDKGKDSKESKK
Sequence (Q07699 19-218 partner): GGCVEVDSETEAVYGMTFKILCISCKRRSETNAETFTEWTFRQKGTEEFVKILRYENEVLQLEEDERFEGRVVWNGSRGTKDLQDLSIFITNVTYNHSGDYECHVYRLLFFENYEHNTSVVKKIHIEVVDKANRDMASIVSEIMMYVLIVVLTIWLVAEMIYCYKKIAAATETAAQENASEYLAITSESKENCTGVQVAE
ASSAY DETAILS: Tritiated sulfonamide competitive binding to membranes from cells expressing hNav1.7 and the β1 subunit;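 also: Filter-bound radioactivity counted by liquid scintillation, nonspecific binding defined with excess unlabelled ligand, IC50 fitted to percent inhibition of specific binding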
CONDITION SUMMARY: read-out: Ligand Binding Assay; 100 pM [3H]compound, membranes with hNav1.7 and β1 subunit, 18 h, room temperature
Where a name gives a salt, the structure may show the parent alone.
ENDPOINT NAME: log10(IC50) (log10 of the value in nM)
The common logarithm of IC50 in nM is what is listed.

Some solved entries appear below for comparison.
INSERT INTO results (compound, test_system, experimental_result) VALUES
  ('CC(C)Oc1ncc([C@H](c2ccccc2)N2CC(COc3cc(F)c(C(=O)NS(C)(=O)=O)cc3C3CC3)C2)cc1Cl', 'hNav1.7 (Homo sapiens (Human), UniProt Q15858)', 0.86),
  ('O=C(NS(=O)(=O)N1CCC1)c1cc(C2CC2)c(OCC2CCN(CCC(F)(F)F)CC2)cc1F', 'hNav1.7 (Homo sapiens (Human), UniProt Q15858)', 2.26),
  ('COCC(c1cc(Cl)cc(Cl)c1)N1CCC(COc2cc(F)c(C(=O)NS(C)(=O)=O)cc2C2CC2)CC1 (stereo not shown)', 'hNav1.7 (Homo sapiens (Human), UniProt Q15858)', 0.46);

Entry under review: CS(=O)(=O)NC(=O)c1cc(C2CC2)c(OCC2CCN(C(CF)c3cc(Cl)cc(Cl)c3)CC2)cc1F (stereo not shown) [Example 358, trifluoroacetic acid salt] . Reported log10(IC50)?
1.15

Again, but for C[C@@H](c1cc(F)cc(C(F)(F)F)c1)N1CCC(C)(COc2cc(F)c(C(=O)NS(C)(=O)=O)cc2C2CC2)CC1 (single isomer, unassigned)
0.70

Again, but for CS(=O)(=O)NC(=O)c1cc(C2CC2)c(O[C@@H]2CCCN(Cc3ccc(C(F)(F)F)c(Cl)c3)C2)cc1F [Example 433, trifluoroacetic acid salt]
0.79

Again, but for "CS(=O)(=O)NC(=O)c1cc(C2CC2)c(OCC2CCN(S(=O)(=O)c3cccc(C(F)(F)F)c3)CC2)cc1F"
1.36

Again, but for CS(=O)(=O)NC(=O)c1cc(C2CC2)c(OCC2CCN(CC3(C(F)(F)F)CCCC3)CC2)cc1F [Example 329, trifluoroacetic acid salt]
0.52

Again, but for CS(=O)(=O)NC(=O)c1cc(C2CC2)c(O[C@@H]2CCCN(Cc3cc(Cl)ccc3O)C2)cc1F [Example 427, trifluoroacetic acid salt]
1.28

Again, but for "O=C(NS(=O)(=O)C1CC1)c1cc(C2CC2)c(OCC2CCN(Cc3cc(Cl)cc(Cl)c3)CC2)cc1F"
0.34

Again, but for "CS(=O)(=O)NC(=O)c1cc(C2CC2)c(OCC2CCN(Cc3cc(Cl)cc(OC(F)(F)F)c3)CC2)cc1F"
0.27

Again, but for O=C(NS(=O)(=O)N1CCC1)c1cc(C2CC2)c(OC[C@H]2CCCN(Cc3ccc(F)cc3Cl)C2)cc1F [Example 339, trifluoroacetic acid salt]
1.22

Again, but for "CS(=O)(=O)NC(=O)c1cc(C2CC2)c(OCC2CCN(C(=O)c3ccc(Cl)c(Cl)c3)CC2)cc1F"
1.81

----------
TEST SYSTEM: hNav1.7 (Homo sapiens (Human))
ASSAY DETAILS: Tritiated sulfonamide competitive binding to membranes from cells expressing hNav1.7 and the β1 subunit
CONDITION SUMMARY: read-out: Ligand Binding Assay; 100 pM [3H]compound, membranes with hNav1.7 and β1 subunit, 18 h, room temperature
Structures can show the parent of a compound that is named as a salt.
Labelling field: enter condition met if recorded IC50 is less than 5 nM. Enter condition not met if it equals or exceeds that cut-off.

Examples with answers:
INSERT INTO assay_data (compound, category_label) VALUES
  ('CC(C)N(C(=O)CN1CCC(COc2cc(F)c(C(=O)NS(C)(=O)=O)cc2C2CC2)CC1)C(C)C', 'condition not met'),
  ('C[C@H](c1cc(Cl)cc(Cl)c1)N1CCC(COc2cc(F)c(C(=O)NS(C)(=O)=O)cc2Cl)CC1', 'condition not met'),
  ('O=C(NS(=O)(=O)C1CC1)c1cc(C2CC2)c(OCC2CCN(S(=O)(=O)c3ccc(F)c(Cl)c3)CC2)cc1F', 'condition not met'),
  ('CS(=O)(=O)NC(=O)c1cc(C2CC2)c(OCC2CCN(C(c3ccccc3)c3cc(Cl)cc(Cl)c3)CC2)cc1F (stereo not drawn) [Example 412, trifluoroacetic acid salt]', 'condition met');

In the following, a different compound is considered.
is_below(IC50, 5 nM) for COC[C@H](c1cc(Cl)cc(Cl)c1)N1CCC(COc2cc(F)c(C(=O)NS(=O)(=O)C3CC3)cc2C2CC2)CC1 (single isomer, unassigned) ?
condition met
